Test system: T. vaginalis
Assay: Trichomonas resorufin assay
Type: cell-based
Details: Trichomonas vaginalis, read-out: IC50 T. vaginalis
Provide the recorded IC50 for the entries that follow.

Kindly note: T. vaginalis, [H]/N=C(\CCNC(=O)c1cc(NC(=O)c2cc(NC(=O)c3ccc(C=Cc4ccc(C#N)cc4)cc3)cn2C)cn1C)NC(C)C , IC50 value reported: 5 to 50 µM

IC50 value, target or system T. vaginalis, for CC(C)NC(=N)CCNC(=O)c1cc(NC(=O)c2cc(NC(=O)c3ccc(/C=C/c4cnc5ccccc5c4)cc3)cn2C)cn1C : < 1 µM

T. vaginalis assay, compound COc1cccc(/C=C/c2ccc(C(=O)Nc3cc(C(=O)Nc4cc(C(=O)NCCC(=N)NC(C)C)n(C)c4)n(C)c3)cn2)c1 , recorded IC50 = 5 to 50 µM

Let me check: [H]/N=C(\CCNC(=O)c1cc(NC(=O)c2cc(NC(=O)c3ccc(C=Cc4ccc5nonc5c4)cc3)cn2C)cn1C)N1CCOCC1 , system T. vaginalis, measured IC50 is > 50 µM
